target: BRD2-BD2 (Homo sapiens (Human)); experiment: competitive TR-FRET assay, BET-BD with acetylated peptide ligand; format: binding; conditions: Table 4, ratio of EC50
Sequence (P25440 344-453): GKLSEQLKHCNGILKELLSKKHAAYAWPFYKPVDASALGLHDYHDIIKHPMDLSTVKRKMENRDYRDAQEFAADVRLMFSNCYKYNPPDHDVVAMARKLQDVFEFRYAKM
QUANTITY: [2(1)/2(2)]
Answers are plain numbers.

Here are 6 compounds. What values of [2(1)/2(2)] were reported for them?
1. CC(=O)Nc1cccc(-c2ccc3c(c2)[C@H](Nc2ccc(F)cc2)C[C@H](C)N3C(C)=O)c1 [compound 39]
2. CC(=O)Nc1cccc(-c2ccc3c(c2)[C@H](Nc2ccccc2C(F)(F)F)C[C@H](C)N3C(C)=O)c1 [compound 41]
3. COC(=O)c1ccc(N[C@@H]2C[C@H](C)N(C(C)=O)c3ccc(-c4cccc(NC(C)=O)c4)cc32)cc1 [compound 4]
4. COc1ccccc1N[C@@H]1C[C@H](C)N(C(C)=O)c2ccc(-c3cccc(NC(C)=O)c3)cc21 [compound 40]
5. CC(=O)Nc1cccc(-c2ccc3c(c2)[C@H](Nc2ccccc2OC(F)(F)F)C[C@H](C)N3C(C)=O)c1 [compound 19]
6. CC(=O)Nc1cccc(-c2ccc3c(c2)[C@H](Nc2ccc(Cl)cc2)C[C@H](C)N3C(C)=O)c1 [compound 10]

1. 51
2. 57
3. 19.5
4. 75
5. 52
6. 33
